The reported numbers originate from paper PMC5729604.

- Test system: human peripheral blood mononuclear cells (PBMCs)
- Assay type: cell-based
- experimental_context: 72 h
assay_endpoint: LD50 (µg/mL)
Reply numerically in µg/mL, unit not repeated.

As a guide, the following entries are already answered.
CC(=NN=C1SC(=Cc2cn(-c3ccccc3)nc2-c2ccc(Cl)cc2)C(=O)N1c1ccccc1)c1cc2ccccc2o1 ... 92.27
COc1ccc(-c2nn(-c3ccccc3)cc2C=C2SC(=NN=C(C)c3cc4ccccc4o3)N(C3CCCCC3)C2=O)cc1 ... 46.89
CC(=NN=C1SC(=Cc2cn(-c3ccccc3)nc2-c2ccccc2)C(=O)N1c1ccc(Cl)cc1)c1cc2ccccc2o1 ... 160.43

Query block: Suppose we examine the compound COc1ccc(N2C(=O)C(=Cc3cn(-c4ccccc4)nc3-c3ccccc3)SC2=NN=C(C)c2cc3ccccc3o2)cc1 ; what LD50 value has been reported?
Result block: 39.01

Query block: Given the compound COc1ccc(-c2nn(-c3ccccc3)cc2C=C2SC(=NN=C(C)c3cc4ccccc4o3)N(c3ccccc3)C2=O)cc1 , what is its reported LD50?
Result block: 139.19

Query block: Could you share which LD50 value was measured for CC(=NN=C1SC(=C2C(=O)Nc3ccccc32)C(=O)N1c1ccc(Cl)cc1)c1nc2ccccc2[nH]1 ?
Result block: 1369.42

Query block: Fill in: LD50 of CC(=NN=C1SC(=Cc2cn(-c3ccccc3)nc2-c2ccc(Cl)cc2)C(=O)N1C1CCCCC1)c1nc2ccccc2[nH]1 is ___
Result block: 36.28

Query block: Which measured LD50 value corresponds to CC(=NN=C1SC(=Cc2cn(-c3ccccc3)nc2-c2ccccc2)C(=O)N1c1ccccc1)c1cc2ccccc2o1 ?
Result block: 13.99

Query block: For the compound shown here, CC(=NN=C1SC(=C2C(=O)Nc3ccccc32)C(=O)N1c1ccc(Cl)cc1)c1cc2ccccc2o1 , give the reported LD50.
Result block: 61.46

Query block: Consider the compound shown here: CC(=NN=C1SC(=Cc2cn(-c3ccccc3)nc2-c2ccc(Cl)cc2)C(=O)N1c1ccc(Cl)cc1)c1cc2ccccc2o1 What is its recorded LD50?
Result block: 117.12

Query block: # input compound: CC(=NN=C1SC(=Cc2cn(-c3ccccc3)nc2-c2ccccc2)C(=O)N1C1CCCCC1)c1cc2ccccc2o1 ; wanted: its LD50
Result block: 134.00

Query block: Need LD50, item CC(=NN=C1SC(=Cc2cn(-c3ccccc3)nc2-c2ccc(Cl)cc2)C(=O)N1c1ccc(Cl)cc1)c1nc2ccccc2[nH]1
Result block: 1246.96

Query block: // query LD50 value for entry CC(=NN=C1SC(=C2C(=O)Nc3ccccc32)C(=O)N1c1ccccc1)c1nc2ccccc2[nH]1
Result block: 329.03

Query block: Record request: LD50 value, item COc1ccc(-c2nn(-c3ccccc3)cc2C=C2SC(=NN=C(C)c3cc4ccccc4o3)N(c3ccc(OC)cc3)C2=O)cc1
Result block: 25.35

Query block: What value of LD50 has been reported for the following compound? COc1ccc(N2C(=O)C(=C3C(=O)Nc4ccccc43)SC2=NN=C(C)c2cc3ccccc3o2)cc1
Result block: 28.67

----------
Listed here are compounds together with their documented Selectivity index.
- Tested on: human HCC cell line HepG2
- procedure_summary: cells
- Assay type: cell-based
- experimental_context: LD50 on PBMC / IC50 on HepG2
- Experimental: The safe compounds on RBCs (5a-g, 5i-l, 5p-r, 5v-w, 6b-g) were screened for their potential anticancer activity against human HCC cell line HepG2. HepG2 cells were exposed to the test compounds, then viability of cells was measured using neutral red uptake assay as described by Borenfreund and Puerner. This assay depends on the fact that neutral red dye can be incorporated into the lysosomes of living cells providing a quantitative assay to the cytotoxic effects. […]
// return just the number, without any unit appended

Some solved entries appear below for comparison.
COc1ccc(-c2nn(-c3ccccc3)cc2C=C2SC(=NN=C(C)c3nc4ccccc4[nH]3)N(c3ccc(Cl)cc3)C2=O)cc1 ... 3.99
COc1ccc(-c2nn(-c3ccccc3)cc2C=C2SC(=NN=C(C)c3cc4ccccc4o3)N(c3ccc(Cl)cc3)C2=O)cc1 ... 3.74

// next item, Selectivity index requested
Query block: Form entry - test system: human HCC cell line HepG2; read-out: Selectivity index; compound: CC(=NN=C1SC(=C2C(=O)Nc3ccccc32)C(=O)N1C1CCCCC1)c1cc2ccccc2o1
Result block: 0.42

----------
- System: human HCC cell line HepG2
- procedure_summary: cells
- Format: cell-based
- experimental_context: Homo sapiens, HepG2, 72 h, 72 h, neutral red; Table 1; read-out: IC50 (HepG2)
assay_endpoint: IC50 (µg/mL)
API: value field is a number in µg/mL; no unit string.

Some compounds with known IC50 results, for comparison:
CC(=NN=C1SC(=C2C(=O)Nc3ccccc32)C(=O)N1C1CCCCC1)c1cc2ccccc2o1 [Compound 6d] ... 34.3
CC(=NN=C1SC(=Cc2cn(-c3ccccc3)nc2-c2ccc(Cl)cc2)C(=O)N1c1ccc(Cl)cc1)c1nc2ccccc2[nH]1 [Compound 5q] ... 35.7
COc1ccc(-c2nn(-c3ccccc3)cc2C=C2SC(=NN=C(C)c3cc4ccccc4o3)N(C3CCCCC3)C2=O)cc1 [Compound 5l] ... 82.1
COc1ccc(-c2nn(-c3ccccc3)cc2C=C2SC(=NN=C(C)c3nc4ccccc4[nH]3)N(c3ccc(Cl)cc3)C2=O)cc1 [Compound 5r] ... 11
COc1ccc(-c2nn(-c3ccccc3)cc2C=C2SC(=NN=C(C)c3cc4ccccc4o3)N(c3ccc(Cl)cc3)C2=O)cc1 [Compound 5f] ... 69.4

Query block: Looking for the measured IC50 of CC(=NN=C1SC(=Cc2cn(-c3ccccc3)nc2-c2ccccc2)C(=O)N1c1ccc(Cl)cc1)c1nc2ccccc2[nH]1 [Compound 5p] , can you help?
Result block: 46.5

Query block: # IC50 lookup, item CC(=NN=C1SC(=Cc2cn(-c3ccccc3)nc2-c2ccccc2)C(=O)N1C1CCCCC1)c1cc2ccccc2o1 [Compound 5j]
Result block: 63.8

Query block: Quick check: IC50 of COc1ccc(N2C(=O)C(=C3C(=O)Nc4ccccc43)SC2=NN=C(C)c2cc3ccccc3o2)cc1 [Compound 6c] ?
Result block: 76.8

----------
- Test system: human HCC cell line HepG2
- procedure_summary: cells
- Assay type: cell-based
- experimental_context: human, 72 h
Record MET whenever (LD0) HepG2 is at 20 µg/mL or higher; record NOT MET when lower.

Here are 5 compounds together with their reported answers.
CC(=NN=C1SC(=C2C(=O)Nc3ccccc32)C(=O)N1c1ccccc1)c1nc2ccccc2[nH]1 ... NOT MET
CC(=NN=C1SC(=Cc2cn(-c3ccccc3)nc2-c2ccc(Cl)cc2)C(=O)N1C1CCCCC1)c1nc2ccccc2[nH]1 ... MET
CC(=NN=C1SC(=C2C(=O)Nc3ccccc32)C(=O)N1c1ccc(Cl)cc1)c1cc2ccccc2o1 ... NOT MET
COc1ccc(N2C(=O)C(=Cc3cn(-c4ccccc4)nc3-c3ccccc3)SC2=NN=C(C)c2cc3ccccc3o2)cc1 ... MET
CC(=NN=C1SC(=Cc2cn(-c3ccccc3)nc2-c2ccc(Cl)cc2)C(=O)N1c1ccc(Cl)cc1)c1nc2ccccc2[nH]1 ... MET

Query block: Hello, I need to know if COc1ccc(-c2nn(-c3ccccc3)cc2C=C2SC(=NN=C(C)c3cc4ccccc4o3)N(c3ccccc3)C2=O)cc1 has measured (LD0) HepG2 not below 20 µg/mL. Thanks!
Result block: NOT MET

Query block: Given COc1ccc(-c2nn(-c3ccccc3)cc2C=C2SC(=NN=C(C)c3cc4ccccc4o3)N(c3ccc(Cl)cc3)C2=O)cc1 , state whether its (LD0) HepG2 is at least 20 µg/mL.
Result block: NOT MET

Query block: Hi, just wondering whether COc1ccc(-c2nn(-c3ccccc3)cc2C=C2SC(=NN=C(C)c3nc4ccccc4[nH]3)N(c3ccc(Cl)cc3)C2=O)cc1 shows (LD0) HepG2 of 20 µg/mL or higher.
Result block: NOT MET

Query block: Record CC(=NN=C1SC(=C2C(=O)Nc3ccccc32)C(=O)N1C1CCCCC1)c1cc2ccccc2o1 ; criterion: (LD0) HepG2 no lower than 20 µg/mL. Met?
Result block: NOT MET

Query block: Quick check, (LD0) HepG2 >= 20 µg/mL? CC(=NN=C1SC(=Cc2cn(-c3ccccc3)nc2-c2ccc(Cl)cc2)C(=O)N1c1ccc(Cl)cc1)c1cc2ccccc2o1
Result block: MET

Query block: API: above_or_equal(metric=(LD0) HepG2, cutoff=20 µg/mL) for item CC(=NN=C1SC(=Cc2cn(-c3ccccc3)nc2-c2ccccc2)C(=O)N1c1ccccc1)c1cc2ccccc2o1
Result block: NOT MET

Query block: Record COc1ccc(N2C(=O)C(=C3C(=O)Nc4ccccc43)SC2=NN=C(C)c2cc3ccccc3o2)cc1 ; criterion: (LD0) HepG2 no lower than 20 µg/mL. Met?
Result block: NOT MET

Query block: Identify whether the reported (LD0) HepG2 of the following compound is 20 µg/mL or greater: COc1ccc(-c2nn(-c3ccccc3)cc2C=C2SC(=NN=C(C)c3cc4ccccc4o3)N(C3CCCCC3)C2=O)cc1
Result block: NOT MET

Query block: Check this compound for (LD0) HepG2 at or above 20 µg/mL: CC(=NN=C1SC(=C2C(=O)Nc3ccccc32)C(=O)N1c1ccc(Cl)cc1)c1nc2ccccc2[nH]1
Result block: MET
